- Tgt: Thromboxane A2 receptor (Rattus norvegicus)
- Assay remarks: Antagonist activity against TXA2 receptor measured by inhibition of U-46,619-induced contractions of rat aorta
- Format: functional, tissue-based
Collected pA2 values appear next to each entry.
// response body must contain only the number

[ask] So what does the record say about pA2 for "CCN(CC)S(=O)(=O)NCCc1cc(CCC(=O)O)cc(Cc2cccnc2)c1" ?
[reply] 7.43

[ask] Field request: pA2 | item: CC(c1cccnc1)c1cc(CCNS(=O)(=O)c2ccc(Cl)cc2)cc(CCC(=O)O)c1 (stereo not given)
[reply] 10.2

[ask] Can you look up the measured pA2 of "O=C(O)CCc1cc(CCNS(=O)(=O)N2CCCC2)cc(Cc2cccnc2)c1" for me?
[reply] 8
